Measured area under the viability dose-response curve accompanies every entry in the list below.
- System: 3E (embryonal-type hepatoblastoma organoid)
- test protocol: area under the viability dose-response curve (AUC) (AUC (arbitrary units, max 500 = no viability loss)); higher = less sensitive (higher viability)
- condition parameters: exposure time: 120 h; concentration range: 0.1 nM - 10 µM, 6 doses
quantity kind: area under the viability dose-response curve

{"columns": ["compound", "modifier sign", "reported value"],
 "data": [
  ["CC[C@H](Nc1ncnc2[nH]cnc12)c1nc2cccc(F)c2c(=O)n1-c1ccccc1 [Idelalisib]", "=", 491],
  ["C[C@@H](NC(=O)c1ncnc(N)c1Cl)c1ncc(C(=O)Nc2cc(C(F)(F)F)c(Cl)cn2)s1 [TAK-580]", ">", 500],
  ["C=CC(=O)N1CC[C@H](n2nc(C#Cc3cc(OC)cc(OC)c3)c3c(N)ncnc32)C1 [Futibatinib]", "=", 236],
  ["CCn1cc(-c2cccc(C(F)(F)F)c2)c2sc(C(=N)NC3CCS(=O)(=O)CC3)cc2c1=O [I-BRD9]", "=", 376]
]}
